system: 409B2 hiPSC (iCRISPR Cas9, FRMD7 editing); test: NHEJ-attributed indel frequency relative to solvent control (fold (ratio to mock)); higher = more NHEJ outcomes; details: 50000 nM
Structures can show the parent of a compound that is named as a salt.
Assign NHEJ-attributed indel frequency to each entry below.
Numbers only.

>  <COMPOUND>
CN(C)C(=O)C(CCN1CCC(O)(c2ccc(Cl)cc2)CC1)(c1ccccc1)c1ccccc1 [Loperamide HCl] (in DMSO)

>  <OBSERVED PROPERTY>
NHEJ-attributed indel frequency

>  <MEAS VALUE>
0.186

$$$$
>  <COMPOUND>
Nc1ccn(C[C@@H](CO)OCP(=O)(O)O)c(=O)n1 [Cidofovir] (in H2O)

>  <OBSERVED PROPERTY>
NHEJ-attributed indel frequency

>  <MEAS VALUE>
0.988

$$$$
>  <COMPOUND>
Cc1ccc(NC(=O)c2ccc(CN3CC[C@H](N(C)C)C3)c(C(F)(F)F)c2)cc1Nc1nccc(-c2cncnc2)n1 [Bafetinib (INNO-406)] (in DMSO)

>  <OBSERVED PROPERTY>
NHEJ-attributed indel frequency

>  <MEAS VALUE>
0.525

$$$$

// moving on: another record for NHEJ-attributed indel frequency
Look up NHEJ-attributed indel frequency with 409B2 hiPSC (iCRISPR Cas9, FRMD7 editing) for this compound: CCN1CCC[C@H]1CNC(=O)c1cc(S(N)(=O)=O)ccc1OC [Levosulpiride] (in DMSO)
0.978

* * *

system: 409B2 hiPSC (iCRISPR Cas9, FRMD7 editing); assay: cell survival relative to solvent control (fold (ratio to mock)); higher = more surviving cells; settings: 2000 nM
Where a name gives a salt, the structure may show the parent alone.
Think of 0.9 as a floor: if cell survival stands on it or above, it is Fulfilled; beneath it, Not fulfilled.

The examples below pair each entry with its known result.
>  <COMPOUND>
CCN1CCN(Cc2ccc(Nc3ncc(F)c(-c4cc(F)c5nc(C)n(C(C)C)c5c4)n3)nc2)CC1 (in EtOH)

>  <ASSIGNED LABEL>
Not fulfilled

$$$$
>  <COMPOUND>
C[C@@H]1O[C@@H](O[C@H]2C[C@@H](O)[C@]3(CO)[C@H]4[C@H](O)C[C@]5(C)[C@@H](C6=CC(=O)OC6)CC[C@]5(O)[C@@H]4CC[C@]3(O)C2)[C@H](O)[C@H](O)[C@H]1O [Ouabain Octahydrate] (in H2O)

>  <ASSIGNED LABEL>
Not fulfilled

$$$$
>  <COMPOUND>
Cc1nc(=O)c2cc(CN(C)c3ccc(C(=O)N[C@@H](CCC(=O)O)C(=O)O)s3)ccc2[nH]1 [Raltitrexed] (in DMSO)

>  <ASSIGNED LABEL>
Fulfilled

$$$$
>  <COMPOUND>
CCc1c2c(nc3ccc(OC(=O)N4CCC(N5CCCCC5)CC4)cc13)-c1cc3c(c(=O)n1C2)COC(=O)[C@]3(O)CC [Irinotecan HCl Trihydrate] (in DMSO)

>  <ASSIGNED LABEL>
Not fulfilled

$$$$
>  <COMPOUND>
O=C(c1cc(Cc2n[nH]c(=O)c3ccccc23)ccc1F)N1CCN(C(=O)C2CC2)CC1 (in DMSO)

>  <ASSIGNED LABEL>
Not fulfilled

$$$$
>  <COMPOUND>
O=C1NC(=O)[C@@H](c2cn3c4c(cccc24)CCC3)[C@@H]1c1c[nH]c2ccccc12 [Tivantinib (ARQ 197)] (in DMSO)

>  <ASSIGNED LABEL>
Not fulfilled

$$$$
>  <COMPOUND>
CCN1CCC[C@H]1CNC(=O)c1cc(S(N)(=O)=O)ccc1OC [Levosulpiride] (in DMSO)

>  <ASSIGNED LABEL>
Fulfilled

$$$$
>  <COMPOUND>
Cc1c(C(C)C)c(=O)n(-c2ccccc2)n1C [Propyphenazone (4-Isopropylantipyrine)] (in DMSO)

>  <ASSIGNED LABEL>
Fulfilled

$$$$

Has Nc1ccn(C[C@@H](CO)OCP(=O)(O)O)c(=O)n1 [Cidofovir] (in H2O) a recorded cell survival greater than or equal to 0.9?
Not fulfilled

Input CC(=O)c1c(C)c2cnc(Nc3ccc(N4CCNCC4)cn3)nc2n(C2CCCC2)c1=O (in DMSO)
Not fulfilled

Then CN(C)C(=O)C(CCN1CCC(O)(c2ccc(Cl)cc2)CC1)(c1ccccc1)c1ccccc1 [Loperamide HCl] (in DMSO) ?
Fulfilled

What do you get for CC(O)C(=O)O (stereo not given) [lactate] (in H2O) ?
Fulfilled

Next record, please: O=C1CN(/N=C/c2ccc(-c3ccc([N+](=O)[O-])cc3)o2)C(=O)N1 [Dantrolene, sodium salt] (in DMSO)
Fulfilled

Proceed to Oc1cccc(O)c1 [Resorcinol] (in DMSO)
Fulfilled

* * *

tested on: 409B2 hiPSC (iCRISPR Cas9, FRMD7 editing); assay: HDR (precise edit) frequency relative to solvent control (fold (ratio to mock)); higher = more homology-directed repair outcomes; conditions: 1000 nM
Where a name gives a salt, the structure may show the parent alone.
OBSERVED PROPERTY: HDR
One number for each entry.

>  <COMPOUND>
O=C(O[C@H]1CN2CCC1CC2)N1CCc2ccccc2[C@@H]1c1ccccc1 [Solifenacin succinate] (in DMSO)

>  <HDR>
1.04

$$$$
>  <COMPOUND>
CC(O)C(=O)O (stereo unspecified) [lactate] (in H2O)

>  <HDR>
0.946

$$$$
>  <COMPOUND>
O=C1NC(=O)[C@@H](c2cn3c4c(cccc24)CCC3)[C@@H]1c1c[nH]c2ccccc12 [Tivantinib (ARQ 197)] (in DMSO)

>  <HDR>
0.897

$$$$
>  <COMPOUND>
CC(=O)O[C@@]12CO[C@@H]1C[C@@H](O)[C@@]1(C)C(=O)[C@H](O)C3=C(C)[C@@H](O)C[C@@](O)([C@@H](OC(=O)c4ccccc4)[C@H]21)C3(C)C [10-DAB (10-Deacetylbaccatin)] (in DMSO)

>  <HDR>
0.816

$$$$
>  <COMPOUND>
CCCCc1oc2ccc(NS(C)(=O)=O)cc2c1C(=O)c1ccc(OCCCN(CCCC)CCCC)cc1 [Dronedarone HCl] (in DMSO)

>  <HDR>
0.734

$$$$
>  <COMPOUND>
CCc1c2c(nc3ccc(OC(=O)N4CCC(N5CCCCC5)CC4)cc13)-c1cc3c(c(=O)n1C2)COC(=O)[C@]3(O)CC [Irinotecan HCl Trihydrate] (in DMSO)

>  <HDR>
0.662

$$$$

Kindly give each listed record's HDR.
1. Nc1c(CC(=O)O)cccc1C(=O)c1ccc(Br)cc1 [Bromfenac Sodium] (in DMSO)
2. O[C@@H]1[C@H](O)[C@H](O)CO[C@H]1O [D-Ribose] (in DMSO)
3. O=C(c1cc(Cc2n[nH]c(=O)c3ccccc23)ccc1F)N1CCN(C(=O)C2CC2)CC1 (in DMSO)

[1.11, 1.13, 1.34]

Provide HDR values for the following items, in order.
1. N=C(NCCCCCCNC(=N)NC(=N)Nc1ccc(Cl)cc1)NC(=N)Nc1ccc(Cl)cc1 [Chlorhexidine HCl] (in DMSO)
2. Cc1c(C(C)C)c(=O)n(-c2ccccc2)n1C [Propyphenazone (4-Isopropylantipyrine)] (in DMSO)

1: 1; 2: 1.1

Go through the list and state HDR for each entry.
1. CC1(C)S[C@@H]2[C@H](NC(=O)COc3ccccc3)C(=O)N2[C@H]1C(=O)O [Penicillin V potassium salt] (in DMSO)
2. Cc1nc(=O)c2cc(CN(C)c3ccc(C(=O)N[C@@H](CCC(=O)O)C(=O)O)s3)ccc2[nH]1 [Raltitrexed] (in DMSO)
3. CO[C@H]1O[C@@H]2O[C@@]3(C)CC[C@H]4[C@H](C)CC[C@@H]([C@H]1C)[C@@]24OO3 [Artemether (SM-224)] (in DMSO)
4. CC(C)/N=c1\cc2n(-c3ccc(Cl)cc3)c3ccccc3nc-2cc1Nc1ccc(Cl)cc1 [Clofazimine] (in DMSO)

0.992
1.16
1.12
0.912

Give HDR (409B2 hiPSC (iCRISPR Cas9, FRMD7 editing)) of the following compound: Oc1cccc(O)c1 [Resorcinol] (in DMSO)
1.11

* * *

tested on: 409B2 hiPSC (iCRISPR Cas9, FRMD7 editing); assay: cell survival relative to solvent control (fold (ratio to mock)); higher = more surviving cells; conditions: 200 nM
Structures can show the parent of a compound that is named as a salt.
Label class 0 if cell survival falls below 0.6; label class 1 in every other case.

Check out these entries, answers already filled in.
>  <COMPOUND>
CC(C)/N=c1\cc2n(-c3ccc(Cl)cc3)c3ccccc3nc-2cc1Nc1ccc(Cl)cc1 [Clofazimine] (in DMSO)

>  <ASSIGNED LABEL>
class 1

$$$$
>  <COMPOUND>
CO[C@@H]1[C@H](OC(=O)/C=C/C=C/C=C/C=C/C(=O)O)CC[C@]2(CO2)[C@H]1[C@@]1(C)O[C@@H]1CC=C(C)C [Fumagillin] (in DMSO)

>  <ASSIGNED LABEL>
class 0

$$$$
>  <COMPOUND>
C[C@@H]1O[C@@H](O[C@@H]2[C@@H](O)[C@H](OCCc3ccc(O)c(O)c3)O[C@H](CO)[C@H]2OC(=O)/C=C/c2ccc(O)c(O)c2)[C@H](O)[C@H](O)[C@H]1O [Verbascoside] (in DMSO)

>  <ASSIGNED LABEL>
class 1

$$$$
>  <COMPOUND>
CCc1c2c(nc3ccc(OC(=O)N4CCC(N5CCCCC5)CC4)cc13)-c1cc3c(c(=O)n1C2)COC(=O)[C@]3(O)CC [Irinotecan HCl Trihydrate] (in DMSO)

>  <ASSIGNED LABEL>
class 1

$$$$

Reported cell survival at or above 0.6? NCCS [2-Aminoethanethiol] (in DMSO)
class 1

Next compound up: CC(=O)O[C@]1(C(C)=O)CC[C@H]2[C@@H]3C=C(C)C4=CC(=O)CC[C@]4(C)[C@H]3CC[C@@]21C [Megestrol Acetate] (in EtOH)
class 1
